assay: self-splicing fitness, log relative to wild type (ln ratio); higher = more splicing; Tetrahymena group I intron in knt gene, E. coli kanamycin selection, DiMSum; sequences stand for … in CUCUCU…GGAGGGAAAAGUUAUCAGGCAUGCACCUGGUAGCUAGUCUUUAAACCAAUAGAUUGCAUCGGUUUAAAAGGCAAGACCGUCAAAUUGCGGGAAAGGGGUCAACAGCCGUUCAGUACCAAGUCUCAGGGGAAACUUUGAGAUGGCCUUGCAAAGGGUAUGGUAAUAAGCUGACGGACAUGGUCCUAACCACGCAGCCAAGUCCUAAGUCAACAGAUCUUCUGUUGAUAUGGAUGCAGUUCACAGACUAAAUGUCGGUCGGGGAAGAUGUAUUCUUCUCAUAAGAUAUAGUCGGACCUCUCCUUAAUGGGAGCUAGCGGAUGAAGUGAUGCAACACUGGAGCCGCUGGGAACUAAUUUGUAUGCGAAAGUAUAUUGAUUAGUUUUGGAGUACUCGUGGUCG; details: 30 °C;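 note: selection with 25 µg/mL kanamycin versus none on LB agar overnight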
MEASURED QUANTITY: self-splicing fitness (ln)

> print(dat)
            biosequence  numeric.readout
1  UAGAAGCAAUAUUACGGACC               -2
2  CCGCAGCAAUAUUACGGUUC            -3.51
3  GGUUAGCAAUAUUACGUGCA           -0.869
4  GUCUAGCAAUAUUACGCGAG            -1.08
5  GAUAAGCAAUAUUACGGUCA            -1.71
6  CUGGAGCAAUAUUACGAUAC            -2.26
7  AGGCAGCAAUAUUACGACCU            -1.51
8  GCUCAGCAAUAUUACGUACC          0.00766

* * *

assay: self-splicing fitness, log relative to wild type (ln ratio); higher = more splicing; Tetrahymena group I intron in knt gene, E. coli kanamycin selection, DiMSum; sequences stand for … in CUCUCU…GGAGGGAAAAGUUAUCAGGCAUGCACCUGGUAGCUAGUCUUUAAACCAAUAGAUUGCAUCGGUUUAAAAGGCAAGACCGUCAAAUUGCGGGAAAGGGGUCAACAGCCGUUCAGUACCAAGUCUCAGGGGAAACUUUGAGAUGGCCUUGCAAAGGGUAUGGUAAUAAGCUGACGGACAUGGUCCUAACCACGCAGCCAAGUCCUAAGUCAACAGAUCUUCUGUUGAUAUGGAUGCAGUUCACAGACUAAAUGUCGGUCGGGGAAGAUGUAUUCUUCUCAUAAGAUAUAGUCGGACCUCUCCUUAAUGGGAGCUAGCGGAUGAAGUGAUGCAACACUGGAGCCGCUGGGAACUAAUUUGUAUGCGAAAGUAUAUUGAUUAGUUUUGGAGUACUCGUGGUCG; conditions: 30 °C
# cutoff -2 applies to self-splicing fitness (ln); >= gives Criterion met, < gives Criterion not met

> print(dat)
             biosequence     discrete.label
 1  UAAAAGCAAUAUUACGCGAA  Criterion not met
 2  UGGUAGCAAUAUUACGUAUA      Criterion met
 3  ACUUAGCAAUAUUACGCUGC  Criterion not met
 4  CGUCAGCAAUAUUACGUCAU  Criterion not met
 5  ACUAAGCAAUAUUACGAUCA      Criterion met
 6  CGCUAGCAAUAUUACGUCGC  Criterion not met
 7  CACCAGCAAUAUUACGGCAA      Criterion met
 8  UACAAGCAAUAUUACGUAAA  Criterion not met
 9  CGAGAGCAAUAUUACGGAUA  Criterion not met
10  UCUGAGCAAUAUUACGCCGA      Criterion met
11  GAUCAGCAAUAUUACGUUAC  Criterion not met
12  GACUAGCAAUAUUACGAAGA      Criterion met
13  CAUUAGCAAUAUUACGAGGU  Criterion not met
14  AUUAAGCAAUAUUACGUUGA  Criterion not met
15  CCUCAGCAAUAUUACGAUAU  Criterion not met
16  AUGUAGCAAUAUUACGACCA      Criterion met
17  UCUCAGCAAUAUUACGUUUC  Criterion not met
18  AUUUAGCAAUAUUACGUACG      Criterion met
19  CAGAAGCAAUAUUACGGACU  Criterion not met
20  CCAAAGCAAUAUUACGCCGA  Criterion not met
21  AUACAGCAAUAUUACGACUC      Criterion met
22  CCAGAGCAAUAUUACGAACG      Criterion met
23  CGACAGCAAUAUUACGGGGG  Criterion not met
24  AAGGAGCAAUAUUACGUUGU  Criterion not met
25  AAAGAGCAAUAUUACGAUCU      Criterion met
26  ACAGAGCAAUAUUACGUCGG  Criterion not met
27  UUGUAGCAAUAUUACGUGAG      Criterion met
28  AGUGAGCAAUAUUACGGGUA  Criterion not met
29  GUUUAGCAAUAUUACGGAUA  Criterion not met
30  GUGUAGCAAUAUUACGCGUA      Criterion met
31  UAGUAGCAAUAUUACGCACA      Criterion met
32  GAGAAGCAAUAUUACGAACA      Criterion met
33  AUACAGCAAUAUUACGUUAG  Criterion not met
34  AUAUAGCAAUAUUACGCACG      Criterion met
35  GCAGAGCAAUAUUACGGAGG  Criterion not met
36  AGGCAGCAAUAUUACGUGUA  Criterion not met
37  ACCUAGCAAUAUUACGUUAU  Criterion not met
38  ACAGAGCAAUAUUACGCUAG  Criterion not met
39  UGGCAGCAAUAUUACGGACG      Criterion met
40  AGAGAGCAAUAUUACGUCCC  Criterion not met
41  GCUAAGCAAUAUUACGUGUC  Criterion not met
42  AUGCAGCAAUAUUACGUAAC  Criterion not met
43  UAACAGCAAUAUUACGCAGU  Criterion not met
44  UGCGAGCAAUAUUACGAGUU  Criterion not met
45  CGGUAGCAAUAUUACGCCCU      Criterion met
46  AAAAAGCAAUAUUACGGGAC      Criterion met
47  CUGAAGCAAUAUUACGGCCU  Criterion not met
48  AAAAAGCAAUAUUACGGAGG  Criterion not met
49  GGGCAGCAAUAUUACGACAA      Criterion met
50  GAAGAGCAAUAUUACGCUAC  Criterion not met
51  CACUAGCAAUAUUACGGUGU  Criterion not met
52  CGAGAGCAAUAUUACGGGGG  Criterion not met
53  CUAUAGCAAUAUUACGCGUC  Criterion not met
54  UUCUAGCAAUAUUACGCUGA      Criterion met
55  CAACAGCAAUAUUACGGUUG  Criterion not met
56  UUACAGCAAUAUUACGUCUA      Criterion met
57  UCUAAGCAAUAUUACGAACU  Criterion not met
58  UGCUAGCAAUAUUACGACCG      Criterion met
59  GUAGAGCAAUAUUACGGUUU      Criterion met
60  ACGGAGCAAUAUUACGGUCG  Criterion not met
61  AGCUAGCAAUAUUACGCUCG  Criterion not met
62  UAAAAGCAAUAUUACGCCAU  Criterion not met
63  CAUCAGCAAUAUUACGCCCU  Criterion not met
64  CCUAAGCAAUAUUACGCAUG  Criterion not met
65  GCUCAGCAAUAUUACGAGAA      Criterion met

* * *

test: self-splicing fitness, log relative to wild type (ln ratio); higher = more splicing; Tetrahymena group I intron in knt gene, E. coli kanamycin selection, DiMSum; sequences stand for … in CUCUCU…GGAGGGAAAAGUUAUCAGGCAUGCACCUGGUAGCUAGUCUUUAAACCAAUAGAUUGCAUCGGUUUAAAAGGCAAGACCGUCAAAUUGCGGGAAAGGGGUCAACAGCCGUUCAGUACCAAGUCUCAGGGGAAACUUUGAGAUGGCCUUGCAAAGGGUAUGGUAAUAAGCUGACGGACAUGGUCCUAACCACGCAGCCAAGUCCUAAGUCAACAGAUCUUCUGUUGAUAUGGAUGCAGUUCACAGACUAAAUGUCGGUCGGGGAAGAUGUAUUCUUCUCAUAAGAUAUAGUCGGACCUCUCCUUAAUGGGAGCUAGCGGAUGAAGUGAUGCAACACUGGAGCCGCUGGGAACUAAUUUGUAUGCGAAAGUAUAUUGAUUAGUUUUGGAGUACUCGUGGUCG; conditions: 37 °C
Property: self-splicing fitness (ln); scope: individual sequences
MEASURED QUANTITY: self-splicing fitness (ln)

> print(dat)
             biosequence  numeric.readout
 1  AUAUAGCAAUAUUACGCUGC            -1.74
 2  CGACAGCAAUAUUACGUAUC            -1.59
 3  CAUAAGCAAUAUUACGUUAU            -2.58
 4  CAGGAGCAAUAUUACGGUGG            0.146
 5  CCCGAGCAAUAUUACGGAGU            -2.87
 6  CCUAAGCAAUAUUACGGUUA            -2.67
 7  UCGGAGCAAUAUUACGAAUU            -2.69
 8  UAAGAGCAAUAUUACGUAGU            -2.32
 9  UACUAGCAAUAUUACGCUAU            -1.32
10  CUCUAGCAAUAUUACGACCG           -0.785
11  UCUGAGCAAUAUUACGUGGA            -1.63
12  AUACAGCAAUAUUACGGCCU            0.263
13  GGCAAGCAAUAUUACGAGUU           -0.521
14  UGGAAGCAAUAUUACGGUAG            -1.82
15  AGCUAGCAAUAUUACGCAGA            -1.82
16  GGGUAGCAAUAUUACGACCG           -0.642
